Cited source: patent US10550105B2

# target of assay: PARP7 (Homo sapiens (Human), UniProt Q7Z3E1)
# Sequence (Q7Z3E1 whole entry): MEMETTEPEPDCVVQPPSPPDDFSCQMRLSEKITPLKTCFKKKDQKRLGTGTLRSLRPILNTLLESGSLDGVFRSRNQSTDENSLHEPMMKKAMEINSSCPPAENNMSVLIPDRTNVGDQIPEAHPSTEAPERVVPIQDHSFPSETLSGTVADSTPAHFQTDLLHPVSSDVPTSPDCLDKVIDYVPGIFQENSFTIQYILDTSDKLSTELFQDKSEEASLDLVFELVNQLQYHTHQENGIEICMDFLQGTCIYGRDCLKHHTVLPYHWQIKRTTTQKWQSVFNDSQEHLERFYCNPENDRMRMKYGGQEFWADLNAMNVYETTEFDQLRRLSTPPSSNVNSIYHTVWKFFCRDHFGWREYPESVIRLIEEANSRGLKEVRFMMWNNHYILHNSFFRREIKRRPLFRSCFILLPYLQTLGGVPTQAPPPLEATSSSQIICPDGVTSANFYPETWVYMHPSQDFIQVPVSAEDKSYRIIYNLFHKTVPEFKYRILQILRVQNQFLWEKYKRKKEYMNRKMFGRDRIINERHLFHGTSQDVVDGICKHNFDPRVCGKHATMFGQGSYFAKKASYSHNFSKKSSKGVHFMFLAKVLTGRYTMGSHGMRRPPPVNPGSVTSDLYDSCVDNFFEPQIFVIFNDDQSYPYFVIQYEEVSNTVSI
# procedure details: Enzymatic assay for inhibition of PARP7: TR-FRET displacement of biotinylated Probe A from the TIPARP active site
# Assay type: binding
# test parameters: Table A-1
measured parameter: IC50

Below, 2 compounds whose answers are already recorded.
C[C@@H](COCCC(=O)N1CCN(c2ncc(C(F)(F)F)s2)CC1)Oc1cn[nH]c(=O)c1C(F)(F)F [Example 708] : < 100 nM
N#Cc1ccc(N2CCN(C(=O)C[C@H]3CC[C@@H](CNc4cn[nH]c(=O)c4C(F)(F)F)O3)CC2)nc1 (single isomer, unassigned) [Example 581 Isomer A] : < 100 nM

Note: attention shifts to another entry.
Input line: Item C[C@@H](COc1cn[nH]c(=O)c1C(F)(F)F)OCCC(=O)N1CCN(c2ccc(Cl)cn2)CC1 (single isomer, unassigned) [Example 539 Isomer B] has what recorded IC50?
Output line: 100 to 1000 nM
